# protocolSummary: in vitro
# Type: cell-based
# conditionDetails: african green monkey, vero cells
Recorded CC50 at 72 h, one value per entry.

O=c1[nH]c(=O)n(C[C@]2(CO)C[C@H]2CO)cc1Cl : > 500 µg/mL

Recorded result, Nc1nc2c(ncn2COCCO)c(=O)[nH]1 [acyclovir, reference compound] , CC50 at 72 h: > 500 µg/mL

Recorded result, O=c1[nH]c(=O)n(C[C@]2(CO)C[C@H]2CO)cc1F , CC50 at 72 h: > 500 µg/mL

Recorded result, O=c1[nH]c(=O)n(C[C@]2(CO)C[C@H]2CO)cc1I , CC50 at 72 h: > 500 µg/mL

Recorded result, O=c1[nH]c(=O)n(C[C@@]2(CO)C[C@@H]2CO)cc1/C=C/Br , CC50 at 72 h: > 500 µg/mL

Recorded result, O=c1[nH]c(=O)n(C[C@]2(CO)C[C@H]2CO)cc1/C=C/Cl , CC50 at 72 h: > 500 µg/mL

Recorded result, C=Cc1cn(C[C@]2(CO)C[C@H]2CO)c(=O)[nH]c1=O , CC50 at 72 h: > 500 µg/mL

Recorded result, C#Cc1cn(C[C@]2(CO)C[C@H]2CO)c(=O)[nH]c1=O , CC50 at 72 h: > 500 µg/mL

Recorded result, O=c1[nH]c(=O)n(C[C@]2(CO)C[C@H]2CO)cc1C(F)(F)F , CC50 at 72 h: 234 µg/mL

Recorded result, CCc1cn(C[C@]2(CO)C[C@H]2CO)c(=O)[nH]c1=O , CC50 at 72 h: > 500 µg/mL

Recorded result, CC#Cc1cn(C[C@]2(CO)C[C@H]2CO)c(=O)[nH]c1=O , CC50 at 72 h: > 500 µg/mL

Recorded result, O=c1[nH]c(=O)n(C[C@]2(CO)C[C@H]2CO)cc1/C=C/Br , CC50 at 72 h: > 500 µg/mL

Recorded result, O=c1[nH]c(=O)n(C[C@]2(CO)C[C@@H]2CO)cc1/C=C/Br (relative stereo) , CC50 at 72 h: > 500 µg/mL

Recorded result, O=c1[nH]c(=O)n(C[C@]2(CO)C[C@H]2CO)cc1/C=C/I , CC50 at 72 h: 330 µg/mL

Recorded result, O=c1[nH]c(=O)n(C[C@]2(CO)C[C@H]2CO)cc1Br , CC50 at 72 h: > 500 µg/mL
